test: Encapsulation efficiency of the lipid nanoparticle (eGFP mRNA) by Ribogreen method; assay type: physicochemical; details: LNP encapsulating eGFP mRNA, ionizable lipid/DOPE/cholesterol/DMG-PEG2000 50/10/48.25/1.25 mol%, N/P 12
reported property: Encapsulation rate, % (%)
One number for each entry, in %.

Use the examples below as a reference point.
CCCCCCCCCCCOC(=O)CCCN(CCO)CCCCN(CCCC(=O)OCCCCCCCCCCC)CCCC(=O)OCCCCCCCCCCC [Example 87] = 92.26
CCCCCCCCCCCCCCOC(=O)CCCCCCN(CCCO)CCCN(CCCCCCC(=O)OCCCCCCCCCCCCCC)CCCCCCC(=O)OCCCCCCCCCCCCCC [Example 57] = 99.36
CCCCCCCCCCCOC(=O)CN(CCCCO)CCCN(CC(=O)OCCCCCCCCCCC)CC(=O)OCCCCCCCCCCC [Example 75] = 99.22
CCCCCCCCC(CCCCCCCC)OC(=O)CCCCCCCN(CCO)CCCN(CCCCCCCC(=O)OC(CCCCCCCC)CCCCCCCC)CCCCCCCC(=O)OC(CCCCCCCC)CCCCCCCC [Example 2] = 97.27
CCCCCCCCCCCCCOC(=O)CCCN(CCCO)CCCCN(CCCC(=O)OCCCCCCCCCCCCC)CCCC(=O)OCCCCCCCCCCCCC [Example 101] = 92.68

Hi! Can you tell me Encapsulation rate, % for each of these compounds?
1. CCCCCCCCCCCOC(=O)CCCN(CCCO)CCCCCN(CCCC(=O)OCCCCCCCCCCC)CCCC(=O)OCCCCCCCCCCC [Example 83]
2. CC/C=C\COC(=O)CCCCCCCN(CCO)CCCN(CCCCCCCC(=O)OC/C=C\CC)CCCCCCCC(=O)OC/C=C\CC [Example 10]
3. CCCCC/C=C\C/C=C\CCCCCCCCOC(=O)CCCCCCCN(CCCO)CCCN(CCCCCCCC(=O)OCCCCCCCC/C=C\C/C=C\CCCCC)CCCCCCCC(=O)OCCCCCCCC/C=C\C/C=C\CCCCC [Example 95]
4. CCCCCC/C=C\COC(=O)CCCCCN(CCO)CCCN(CCCCCC(=O)OC/C=C\CCCCCC)CCCCCC(=O)OC/C=C\CCCCCC [Example 25]
5. CCCCCCCCCCCCCOC(=O)CCCN(CCCO)CCCN(CCCC(=O)OCCCCCCCCCCCCC)CCCC(=O)OCCCCCCCCCCCCC [Example 63]

Solution:
1. 99.79
2. 89.02
3. 92.93
4. 98.27
5. 97.68

Exercise: Record request: Encapsulation rate, % value, item CCCCCCCCCCCCCOC(=O)CCN(CCO)CCCN(CCC(=O)OCCCCCCCCCCCCC)CCC(=O)OCCCCCCCCCCCCC [Example 70]
Solution: 97.26

* * *

Give measured PDI for each item. Keep answers brief.
assay: Size and polydispersity index (PDI) of the lipid nanoparticle by dynamic light scattering; format: physicochemical; conditions: LNP encapsulating eGFP mRNA, ionizable lipid/DOPE/cholesterol/DMG-PEG2000 50/10/48.25/1.25 mol%, N/P 12
Give bare numbers.

Use the examples below as a reference point.
CCCCCCCCCCCOC(=O)CCN(CCCCO)CCCN(CCC(=O)OCCCCCCCCCCC)CCC(=O)OCCCCCCCCCCC = 0.13
CCCCCCCOC(=O)CCCCCCCN(CCO)CCCN(CCCCCCCC(=O)OCCCCCCC)CCCCCCCC(=O)OCCCCCCC = 0.25
CCCCCCCCCCCCOC(=O)CCCCCN(CCCO)CCCN(CCCCCC(=O)OCCCCCCCCCCCC)CCCCCC(=O)OCCCCCCCCCCCC = 0.20
CCCCCCCCCCCOC(=O)CCCCCCCCCCCN(CCO)CCCN(CCCCCCCCCCCC(=O)OCCCCCCCCCCC)CCCCCCCCCCCC(=O)OCCCCCCCCCCC = 0.26

We next turn to a different molecule, shown below.
Exercise: Record request: PDI value, item CCCCCCCCCCCOC(=O)CCCN(CCCCO)CCCN(CCCC(=O)OCCCCCCCCCCC)CCCC(=O)OCCCCCCCCCCC
Solution: 0.14
